test system: Staphylococcus aureus 209P JC-1; test: Antibacterial activity test (agar dilution MIC); format: cell-based; details: test bacterium A = Staphylococcus aureus 209P JC-1; blood agar medium, 37° C., about 20 hours; read-out: Minimum inhibitory concentration (MIC)
# key: entry, value: MIC
Dear colleague, please return just the value in µg/mL, with no unit written.

Query: Name the recorded MIC of the compound listed here: CCC(=O)O[C@@H]1CC(=O)O[C@H](C)CCCN(CCCCc2ccccc2)C[C@H](O)[C@H](C)C[C@H](CC=O)[C@H](O[C@@H]2OC(C)[C@@H](O[C@H]3CC(C)(OC(C)=O)[C@@H](OC(=O)CC)C(C)O3)C(N(C)C)C2O)[C@H]1OC (stereo partly shown) [Example 43]
Response: 0.25

Query: Name the recorded MIC of the compound listed here: CCC(=O)O[C@@H]1CC(=O)O[C@@H](C/C=C/c2ccc3ccccc3c2)CCCN(C)C[C@H](O)[C@H](C)C[C@H](CC=O)[C@H](O[C@@H]2OC(C)[C@@H](O[C@H]3CC(C)(O)[C@@H](OC(=O)CC)C(C)O3)C(N(C)C)C2O)[C@H]1OC (stereo partly shown) [Example 84]
Response: 0.5

Further cases:
Query: Name the recorded MIC of the compound listed here: CCC(=O)O[C@@H]1CC(=O)NCCCCN(CCCCc2ccccc2)C[C@H](O)[C@H](C)C[C@H](CC=O)[C@H](O[C@@H]2OC(C)[C@@H](O[C@H]3CC(C)(OC(C)=O)[C@@H](OC(=O)CC)C(C)O3)C(N(C)C)C2O)[C@H]1OC (stereo partly shown) [Example 64]
Response: 0.25

Query: Name the recorded MIC of the compound listed here: CCCC(=O)O[C@H]1C(C)O[C@@H](O[C@@H]2C(C)O[C@@H](O[C@H]3[C@@H](CC=O)C[C@@H](C)[C@@H](O)CN(C)CCC[C@H](C/C=C/c4cncc5ccccc45)OC(=O)C[C@@H](O)[C@@H]3OC)C(O)C2N(C)C)CC1(C)OC(=O)CC (stereo partly shown) [Example 129]
Response: 0.5
